assay: amyloid nucleation score (Sup35N fusion, yeast selection) (log enrichment); library NNK2; higher = more nucleation; inactive = no reads after selection;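 further: zero at mode of non-aggregating sequences after 7 days selection at 30°C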
ATTRIBUTE MEASURED: amyloid nucleation score

> print(dat)
     construct.sequence    result
1       PAYRYKHSNWKNPRQ  inactive
2      IYSISVLHCKGDLVYS  inactive
3  LYCSSLFKVYRGVQTRAKLR  inactive

###

experiment: amyloid nucleation score (Sup35N fusion, yeast selection) (log enrichment); library NNK3; higher = more nucleation; inactive = no reads after selection
ATTRIBUTE MEASURED: amyloid nucleation score

> print(dat)
               substance    result
 1  KCLEGLMVVANDWWVKCFTS     0.671
 2         WIPAMVYFEHNTS  inactive
 3            CFCFARFKFR      2.19
 4  IVTLCSIFDFAFVVTASTMG      1.13
 5           YYTGCHSSVSC  inactive
 6  LNFVVYMIGGFCCHHFNVLF       1.3
 7   SLVYMWPDGTFLRWMGAWH  inactive
 8   RMIRNIFGSHAVLCFGCKC       2.9
 9  GDEVHGFIVVQSREAFSRKL  inactive
10  FNTIAIDTSLVGSNYAGATK  inactive
11     KVIKDNLEVCFLKSMWC  inactive
12  ELPLSSCNRCGECYGLAIVA  inactive
13  ISSNVWARDIRNWLNVTGYC  inactive
14         NFSNHCRKLGEME  inactive
15             KIFSSLFRK     0.251
16  MCKRGRDCGLLFVSTDDLGD  inactive
17  DLYIYCFWLDMVITVCKRQK  inactive
18  NLSSVSIVALLQRVPIYKYL  inactive
19  RVLYGTICIFVGYFLVMSCV     -0.21
20  SVMMVMEEFFQWGLKVNMRT    -0.078
21  LVSERKAKNSRSGSLAFFRR  inactive
22    YITMNVHSRDASVRWLDF  inactive
23       RKVKILWNDTLTFRT  inactive
24  NMRVCCIGNSFSMGYLICWY      2.47
25            FFSASQRVAY  inactive
26         QQCCTLVCWRRMI  inactive
27  QYANVGSCVCDRIIRCFYGW  inactive
28     ELGPYLNSLVAHFSRLY  inactive
29  ILVTASTAYLDVRVKWIQTF  inactive
30  SNLCGFCRSHVIKVMLLLSA  inactive
31        QLVVRCPCYNETVG  inactive
32  EPRRLRITCEYTVNRRLSDE  inactive
33  IALLLQSQLMRHGGFASWNR  inactive
34   FYMISPTISFLLFGLLANI  inactive
35  CRCGSKNTTVRTLLNRGYSE  inactive
36  DTSKNYAIYFGKLGDWSARS     -0.01
37  LSLVDEFQSPLLQLLFVQVA  inactive
38          TRLKFTLDWELM      1.06
39             WMYKTWHRI  inactive
40        QQSWFTIYDVILYR  inactive
41  AMNNAGSGKQEYNRYGEIIN  inactive
42  HKYLWCIPWETLCKTWPFFS  inactive
43   YCWYRQMDNSRGGYYMWVS  inactive
44  YLVTWWMLSHKLTHMCFSGR    -0.024
45               RCLGLML  inactive
46  RCYKMLDLSILDIRYIVMLR  inactive
47  LVILVVDSRRYDMCLSNRDF  inactive
48        KMKSAIIPVECGSR  inactive
